Assay: Ex vivo biodistribution in wild-type mice
Conditions: mouse, kidneys, total radioactivity, 75 min p.i., ex vivo gamma counting, tracer alone, mean ± SD, n: PentixaFor 3, 18F 5, 68Ga 4, 177Lu 3, read-out: kidneys uptake
Non-standard residues stand in square brackets, D forms with d. Residues, ends and D or L forms follow the SMILES beside them. Groups on a side chain read outwards from the residue. *: point of attachment. DOTA = O=C(O)CN1CCN(CC(=O)O)CCN(CC(=O)*)CCN(CC(=O)O)CC1; 2Nal = N[C@@H](Cc1ccc2ccccc2c1)C(=O)O; dNMeOrn = CN[C@H](CCCN)C(=O)O; 4Amb = NCc1ccc(C(=O)O)cc1
MEASURED_ENDPOINT: SUV at 1.25 h (SUV)
Kindly provide the numeric value in SUV only, without the unit symbol.

Value lookup for SUV at 1.25 h; key = CN1C(=O)[C@@H](Cc2ccc(O)cc2)NC(=O)CNC(=O)[C@H](Cc2ccc3ccccc3c2)NC(=O)[C@H](CCCNC(=N)N)NC(=O)[C@H]1CCCNC(=O)c1ccc(CNC(=O)CN2CCN(CC(=O)O)CCN(CC(=O)O)CCN(CC(=O)O)CC2)cc1 [[^68Ga]PentixaFor, metal not drawn] (cyclo([dY][dNMeOrn]([4Amb-DOTA])R[2Nal]G)) 1.9

====

Assay: Ex vivo biodistribution in wild-type mice
Details: mouse, spleen, total radioactivity, 75 min p.i., ex vivo gamma counting, tracer alone, mean ± SD, n: PentixaFor 3, 18F 5, 68Ga 4, 177Lu 3, read-out: spleen uptake
Non-standard residues stand in square brackets, D forms with d. Residues, ends and D or L forms follow the SMILES beside them. Groups on a side chain read outwards from the residue. *: point of attachment. DOTA = O=C(O)CN1CCN(CC(=O)O)CCN(CC(=O)*)CCN(CC(=O)O)CC1; 2Nal = N[C@@H](Cc1ccc2ccccc2c1)C(=O)O; dNMeOrn = CN[C@H](CCCN)C(=O)O; 4Amb = NCc1ccc(C(=O)O)cc1
MEASURED_ENDPOINT: SUV at 1.25 h (SUV)
Kindly provide the numeric value in SUV only, without the unit symbol.

Value lookup for SUV at 1.25 h; key = CN1C(=O)[C@@H](Cc2ccc(O)cc2)NC(=O)CNC(=O)[C@H](Cc2ccc3ccccc3c2)NC(=O)[C@H](CCCNC(=N)N)NC(=O)[C@H]1CCCNC(=O)c1ccc(CNC(=O)CN2CCN(CC(=O)O)CCN(CC(=O)O)CCN(CC(=O)O)CC2)cc1 [[^68Ga]PentixaFor, metal not drawn] (cyclo([dY][dNMeOrn]([4Amb-DOTA])R[2Nal]G)) 0.3

====

Test: Ex vivo biodistribution in wild-type mice
Conditions: mouse, lungs, total radioactivity, 75 min p.i., ex vivo gamma counting, + AMD3100 5 mg/kg, mean ± SD, n: PentixaFor 1, 18F 2, 68Ga 4, 177Lu 3, read-out: lungs uptake
Non-standard residues stand in square brackets, D forms with d. Residues, ends and D or L forms follow the SMILES beside them. Groups on a side chain read outwards from the residue. *: point of attachment. DOTA = O=C(O)CN1CCN(CC(=O)O)CCN(CC(=O)*)CCN(CC(=O)O)CC1; 2Nal = N[C@@H](Cc1ccc2ccccc2c1)C(=O)O; dNMeOrn = CN[C@H](CCCN)C(=O)O; 4Amb = NCc1ccc(C(=O)O)cc1
MEASURED_ENDPOINT: SUV at 1.25 h (SUV)
Kindly provide the numeric value in SUV only, without the unit symbol.

Value lookup for SUV at 1.25 h; key = CN1C(=O)[C@@H](Cc2ccc(O)cc2)NC(=O)CNC(=O)[C@H](Cc2ccc3ccccc3c2)NC(=O)[C@H](CCCNC(=N)N)NC(=O)[C@H]1CCCNC(=O)c1ccc(CNC(=O)CN2CCN(CC(=O)O)CCN(CC(=O)O)CCN(CC(=O)O)CC2)cc1 [[^68Ga]PentixaFor, metal not drawn] (cyclo([dY][dNMeOrn]([4Amb-DOTA])R[2Nal]G)) 0.7
